FYI, the data here is from paper PMC3961306.

tested on: panel of more than 300 wild-type and mutant kinases (313 kinase panel); test: Kinase profiling in a biochemical assay panel (mobility shift assays and ELISA), %-inhibition at 1 μM; selectivity entropy; settings: kinase EGFR(d746-750/T790M); compound at 1 μM
Readout type: %-inhibition of EGFR(d746-750/T790M)

Prompt: Return value of %-inhibition of EGFR(d746-750/T790M) for input CC(C)(C)c1nc(-c2cccc(NS(=O)(=O)c3c(F)cccc3F)c2F)c(-c2ccnc(N)n2)s1 [dabrafenib] , no commentary.
Completion: 6.41%

Prompt: Give recorded %-inhibition of EGFR(d746-750/T790M). CO[C@H]1C[C@@H]2CC[C@@H](C)[C@@](O)(O2)C(=O)C(=O)N2CCCC[C@H]2C(=O)O[C@H]([C@H](C)C[C@@H]2CC[C@@H](OCCO)[C@H](OC)C2)CC(=O)[C@H](C)/C=C(\C)[C@@H](O)[C@@H](OC)C(=O)[C@H](C)C[C@H](C)/C=C/C=C/C=C/1C [everolimus]
Completion: -5%

Prompt: Retrieve %-inhibition of EGFR(d746-750/T790M) measured for CNC(=O)c1cc(Oc2ccc(NC(=O)Nc3ccc(Cl)c(C(F)(F)F)c3)c(F)c2)ccn1 [regorafenib] and print it.
Completion: 3.63%

Prompt: Give the reported %-inhibition of EGFR(d746-750/T790M) for this molecule. CCCS(=O)(=O)Nc1ccc(F)c(C(=O)c2c[nH]c3ncc(-c4ccc(Cl)cc4)cc23)c1F [vemurafenib]
Completion: 4.62%

----------
I'd be grateful if you could share measured %-inhibition of NEK2 for these entries.
target: panel of more than 300 wild-type and mutant kinases (313 kinase panel) (Homo sapiens, UniProt P51955); assay: Kinase profiling in a biochemical assay panel (mobility shift assays and ELISA), %-inhibition at 1 μM; selectivity entropy; settings: kinase NEK2; 1 μM
Sequence (P51955 whole entry, change not shown): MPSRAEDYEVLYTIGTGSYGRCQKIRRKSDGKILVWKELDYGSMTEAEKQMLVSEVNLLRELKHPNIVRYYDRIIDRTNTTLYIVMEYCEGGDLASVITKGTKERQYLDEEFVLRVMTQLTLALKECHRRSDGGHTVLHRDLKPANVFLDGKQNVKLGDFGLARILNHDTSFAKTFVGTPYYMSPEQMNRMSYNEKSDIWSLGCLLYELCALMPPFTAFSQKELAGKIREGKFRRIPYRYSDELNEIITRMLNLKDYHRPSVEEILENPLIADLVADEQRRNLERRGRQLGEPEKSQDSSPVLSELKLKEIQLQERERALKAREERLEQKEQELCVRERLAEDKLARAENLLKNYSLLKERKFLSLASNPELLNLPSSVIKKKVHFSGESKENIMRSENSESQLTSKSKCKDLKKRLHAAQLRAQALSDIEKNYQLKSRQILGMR

Prompt: Consider the compound "Cc1cn(-c2cc(NC(=O)c3ccc(C)c(Nc4nccc(-c5cccnc5)n4)c3)cc(C(F)(F)F)c2)cn1" . State its measured %-inhibition of NEK2.
Completion: -19%

Prompt: Dear colleague, please send me the reported %-inhibition of NEK2 for "N#CC[C@H](C1CCCC1)n1cc(-c2ncnc3[nH]ccc23)cn1" when you can.
Completion: -4%

Prompt: Provide one value: measured %-inhibition of NEK2 of "O=S(=O)(c1cccc2cnccc12)N1CCCNCC1"
Completion: -1%

Prompt: Could you please provide reported %-inhibition of NEK2 for "CO[C@H]1C[C@@H]2CC[C@@H](C)[C@@](O)(O2)C(=O)C(=O)N2CCCC[C@H]2C(=O)O[C@H]([C@H](C)C[C@@H]2CC[C@@H](OC(=O)C(C)(CO)CO)[C@H](OC)C2)CC(=O)[C@H](C)/C=C(\C)[C@@H](O)[C@@H](OC)C(=O)[C@H](C)C[C@H](C)/C=C/C=C/C=C/1C" ? Thanks!
Completion: -5%

Prompt: Look up and report measured %-inhibition of NEK2 for this entry: "CO[C@H]1C[C@@H]2CC[C@@H](C)[C@@](O)(O2)C(=O)C(=O)N2CCCC[C@H]2C(=O)O[C@H]([C@H](C)C[C@@H]2CC[C@@H](OCCO)[C@H](OC)C2)CC(=O)[C@H](C)/C=C(\C)[C@@H](O)[C@@H](OC)C(=O)[C@H](C)C[C@H](C)/C=C/C=C/C=C/1C"
Completion: -7%
